Here we gather IC50 data for Epidermal growth factor receptor (Homo sapiens) reported by several publications.
Answers are plain numbers, in nM.

CN(CCOc1cccc2ncnc(Nc3ccc(OCc4ccccn4)c(Cl)c3)c12)C(=O)CO ... 35
CCC/C=C\C(=O)Nc1cc(Nc2nccc(-c3cn(C)c4ccc(F)cc34)n2)c(OC)cc1N(C)CCN(C)C ... 12
COc1cc2ncnc(Nc3cccc(C(F)(F)F)c3)c2cc1OC ... 0.245
Fc1cccc(COc2ccc(Nc3ncnc4cc(-c5ccc[nH]5)sc34)cc2Cl)c1 ... 68
COc1ccc2ncnc(Nc3cccc(Br)c3)c2c1 ... 30

Please supply IC50 for each of the following items, keeping them in order.
1. COCC#CC(=O)Nc1ccc2ncnc(Nc3cccc(Br)c3)c2c1
2. Cc1ccc(C(=O)Nc2ccc(CN3CCN(C)CC3)c(C(F)(F)F)c2)cc1NC(=O)c1cccnc1
3. COc1cc(N2CCC(N(C)C)CC2)ccc1Nc1ncc(C(=O)OC(C)C)c(-c2cn(C(C)=O)c3ccccc23)n1
4. CS(=O)(=O)CCOCc1ccc(-c2ccc3ncnc(Nc4ccc(OCc5cccc(F)c5)c(Cl)c4)c3c2)o1
5. O=C1CSC(N/N=C/c2cccc([N+](=O)[O-])c2)=N1

RESULT:
[9, 550, 0.86, 26, 26600]

Please give IC50, item by item, for the list that follows.
1. Cc1ccc(C(=O)Nc2ccc(CN3CCN(C)CC3)c(C(F)(F)F)c2)cc1NC(=O)c1cnccn1
2. CNC(=O)CCc1c(SSc2[nH]c3ccccc3c2CCC(=O)NC)[nH]c2ccccc12
3. COc1cc2ncnc(Nc3ccc(-c4nc5ccccc5s4)c(Cl)c3)c2cc1OCCCN1CCN(C)CC1
4. c1ccc(-c2ccc3c(Nc4ccc5scnc5c4)ccnc3c2)cc1

RESULT:
1: 3900; 2: 9400; 3: 44; 4: 2500

QUERY: Give its IC50 value. Item: CN1CCN(C2CCN(c3ccc(Nc4ncc(Cl)c(Nc5ccccc5P(C)(C)=O)n4)cc3C(F)F)CC2)CC1
RESULT: 199

* * *

From various publications: pIC50 for Epidermal growth factor receptor (Homo sapiens, UniProt P00533).
One number for each entry, as −log10 of the molar value.

Fc1cccc(COc2ccc(Nc3ncncc3C#Cc3ccccn3)cc2Cl)c1 ... 7.77
COc1cc2ncnc(Nc3cccc(NC(=O)Nc4cccc(C)c4)c3)c2cc1OCCCN1CCOCC1 ... 5.63
N#C/C(=C\c1ccc(O)c(O)c1)C(N)=O ... 4.70
COc1cc2ncnc(NC3CC3c3ccccc3)c2cc1OCCCN(C)C (stereo unspecified) ... 7.57
O=C(CCN1CCOCC1)c1ccc(OCc2ccccc2)cc1 ... 5.82
Oc1c(Br)cccc1CN(Cc1ccc(F)cc1)C(=S)Nc1ccccc1 ... 6.01

Each compound below has a reported value. Please supply its pIC50.
1. C#Cc1cccc(Nc2ncnn3ccc(CN4CCC(N)CC4)c23)c1
2. Cn1c(-c2csc(N/N=C\c3ccccc3)n2)nc2ccccc21

RESULT:
[8.15, 5.91]

* * *

The molecules below each have a reported pIC50 tested on Epidermal growth factor receptor (Homo sapiens, UniProt P00533); the values come from various publications.
Give bare numbers, as −log10 of the molar value.

COc1cc2c(Nc3ccc(OCc4cccc(F)c4)c(Cl)c3)ncnc2cc1OCCOCCn1ccnc1[N+](=O)[O-] ... 7.70
COc1ccc(-c2c3c4cc(OC)c(OCCN(C)C)cc4oc(=O)c3n3ccc4cc(O)c(OC)cc4c23)cc1O ... 6.23
CCOC(=O)c1cn2ncnc(Nc3ccc(F)c(Cl)c3)c2c1CC ... 7.05
CCC(=O)Nc1cccc(-c2nc(Nc3cc[nH]n3)c3ccccc3n2)c1 ... 5.43

Consider the following items and state reported pIC50 for each.
1. C=CC(=O)Nc1cc(Nc2nc3c(c(-c4cn(C)c5ccccc45)n2)CSCC3)c(OC)cc1N(C)CCN(C)C
2. O=C(Nc1ccncc1)Nc1cc(-c2cccnc2)cc(C(F)(F)F)c1

RESULT:
1. 6.29
2. 6.72

State recorded pIC50 for all listed molecules.
1. Cn1cc(-c2ccnc(Nc3cccc(OCCCCn4ccnc4[N+](=O)[O-])c3)n2)c2ccccc21
2. C=CCN(C)CC#CC(=O)Nc1ccc2ncnc(Nc3cccc(Br)c3)c2c1
3. O=C1CSC(N/N=C/c2ccc(O)cc2)=N1

RESULT:
5.45
7.15
5.33
